assay: Lipophilicity, LogP of the compound; format: physicochemical; conditions: octanol/water
readout_kind: logP
Just the number, please, no unit after it.

Which logP value is on record for O=C(NC(c1ccccc1)c1ccccc1)c1coc(-c2ccccc2O)n1 ?
3.91

* * *

biological target: Histone deacetylase 3 (Homo sapiens) (UniProt O15379); details: at 20 µM;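 also: recombinant enzyme assay with Boc-Lys(Ac)-AMC substrate, fluorescence read on a microplate reader after 30–60 min incubation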
Sequence (O15379 whole entry): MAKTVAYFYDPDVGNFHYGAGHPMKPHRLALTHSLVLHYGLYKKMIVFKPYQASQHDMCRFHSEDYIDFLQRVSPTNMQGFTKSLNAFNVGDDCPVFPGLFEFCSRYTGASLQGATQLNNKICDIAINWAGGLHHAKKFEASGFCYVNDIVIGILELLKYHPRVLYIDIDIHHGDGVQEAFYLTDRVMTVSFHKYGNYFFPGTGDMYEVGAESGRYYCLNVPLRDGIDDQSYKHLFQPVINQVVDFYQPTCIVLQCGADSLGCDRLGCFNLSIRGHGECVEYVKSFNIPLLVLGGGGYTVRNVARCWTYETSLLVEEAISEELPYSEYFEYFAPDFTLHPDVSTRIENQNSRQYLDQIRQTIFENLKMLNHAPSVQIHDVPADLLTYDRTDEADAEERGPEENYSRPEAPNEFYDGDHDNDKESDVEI
Description: Inhibition of human recombinant HDAC3 at 20 uM using Boc-Lys(Ac)-AMC as substrate after 30 to 60 mins by microplate reader assay
readout_kind: inhibition (%)
The figure you give is taken to be in %; do not add the unit.

Which inhibition value is on record for O=C(NCCCCNC(=O)C(c1ccccc1)c1ccccc1)c1coc(-c2ccccc2O)n1 ?
4

Which inhibition value is on record for O=C(NCc1cccc2ccccc12)c1coc(-c2ccccc2O)n1 ?
32.3

Which inhibition value is on record for O=C(NC(c1ccccc1)c1ccccc1)c1coc(-c2ccccc2O)n1 ?
37.8

Which inhibition value is on record for O=C(Nc1ccccc1)c1coc(-c2ccccc2O)n1 ?
22.5

Which inhibition value is on record for O=C(NCC(c1ccccc1)c1ccccc1)c1coc(-c2ccccc2O)n1 ?
23.7

Which inhibition value is on record for O=C(Nc1ccc(-c2ccccc2)cc1)c1coc(-c2ccccc2O)n1 ?
30.2

Which inhibition value is on record for O=C(NCCC(c1ccccc1)c1ccccc1)c1coc(-c2ccccc2O)n1 ?
37.5

* * *

assay: Binding affinity to Zn2+ assessed as Zn2+/compound complex formation by ITC analysis
readout_kind: Kd (nM)
The figure you give is taken to be in nM; do not add the unit.

Which Kd value is on record for O=C(NC(c1ccccc1)c1ccccc1)c1coc(-c2ccccc2O)n1 ?
203
